# literature pull: RAC-alpha serine/threonine-protein kinase (Homo sapiens) IC50

Examples with their reported IC50 follow.
Reported IC50 for C[C@H]1Oc2nc(-c3ccc(C4(N)CCC4)cc3)c(-c3ccccc3)cc2N(C)C1=O : what is it?
100 to 1000 nM

Check NC1(c2ccc(-c3nc4c(cc3-c3ccccc3)C(=O)CCC4)cc2)CCC1 too.
1000 to 10000 nM

Query NC1(c2ccc(-c3nc4c(cc3-c3ccccc3)-c3n[nH]c(N5CCOCC5)c3CC4)cc2)CCC1 next
100 to 1000 nM

Lookup NC1(c2ccc(-c3nc4c(cc3-c3ccccc3)N(CCF)C(=O)N(CCF)C4)cc2)CCC1
≤ 100 nM

Query CC(=O)Nc1ccc(C(=O)Nc2sc(Nc3ccccc3)nc2C(N)=O)cc1 next
> 300 nM

Please find the next molecule below.
Please report the recorded IC50 for COc1cc2ncc3c(N)nc(-c4cncc(OC[C@@H](N)COCc5ccccc5)c4)cc3c2cc1OC .
< 160 nM
